Parameter relative binding ratio: see the listing below.
TARGET_DESC: T1, HLA-A*3101 (purified HLA class I molecule) (human)
T1 construct: Purified MHC molecule
ASSAY_INFO: competition vs 125I standard peptide, purified HLA

BINDER	relative binding ratio
ILWKDIFHK (also called Her2/neu.167) [HER2/neu peptide, position 167, 9 amino acids]	0.22 ratio (IC50 standard/IC50 test)
ILIKRRQQK [HER2/neu peptide, position 673, 9 amino acids]	0.076 ratio (IC50 standard/IC50 test)
ILKETELRK [HER2/neu peptide, position 714, 9 amino acids]	0.0009 ratio (IC50 standard/IC50 test)
HTVPWDQLFR (also called Her2/neu.478) [HER2/neu peptide, position 478, 10 amino acids]	0.96 ratio (IC50 standard/IC50 test)
LLNWCMQIAK [HER2/neu peptide, position 822, 10 amino acids]	0.01 ratio (IC50 standard/IC50 test)

q: Sample GVVFGILIK [HER2/neu peptide, position 668, 9 amino acids] — what was its relative binding ratio?
a: 0.0019 ratio (IC50 standard/IC50 test)

q: Sample KVLRENTSPK [HER2/neu peptide, position 753, 10 amino acids] — what was its relative binding ratio?
a: 0.0068 ratio (IC50 standard/IC50 test)
